# IC90 annotations
- System Under Test: DNA topoisomerase II (Homo sapiens) (UniProt P11388+Q02880)
- Assay Info: Effect of dose dependent inhibition of TOPO II-catalyzed kDNA decatenation in vitro
- Experimental Conditions: Crithidia fasciculata

The examples below pair each entry with its known result.
COc1cc(NS(C)(=O)=O)ccc1Nc1c2ccccc2nc2ccccc12 [AMSACRINE] :: 33 µM
CC(=O)NCCC1=CC(=O)c2nccc3c2c1nc1ccccc13 :: 8.4 µM
COc1cc([C@@H]2c3cc4c(cc3[C@@H](O[C@@H]3O[C@@H]5CO[C@@H](C)O[C@H]5[C@H](O)[C@H]3O)[C@H]3COC(=O)[C@H]23)OCO4)cc(OC)c1O [ETOPOSIDE] :: 68 µM

Here's the next entry for you.
Using the record for CSC1=C(CCNC(C)=O)c2nc3ccccc3c3ccnc(c23)C1=O [DIPLAMINE] , report its IC90. 9.2 µM
